Every entry's value here was drawn from patent US20080033031A1.

Property: MIC; scope: individual compounds
test system: S. aureus ATCC 29213; assay: MIC against S. aureus ATCC 29213; format: cell-based, Staphylococcus aureus
Respond numerically; units are µg/mL and should not be typed.

Solved entries (count: 3):
[[record]]
compound = "CCC[C@@H]1C[C@@H](C(=O)N[C@@H]([C@H]2O[C@H]([S+](C)[O-])[C@H](O)[C@@H](O)[C@H]2O)[C@H](C)Cl)N(C)C1.Cl (stereo partly shown) [CSO A HCl]"
reading_unit = "µg/mL"
observed_result = 16

[[record]]
compound = "CCCC1CC(C(=O)NC(C(C)Cl)C2OC(S(C)(=O)=O)C(O)C(O)C2O)N(C)C1.Cl (stereo not shown) [CSO2 HCl]"
reading_unit = "µg/mL"
observed_result = 1

[[record]]
compound = "CCCC1CC(C(=O)NC(C(C)Cl)C2OC([S+](C)[O-])C(O)C(O)C2O)N(C)C1.Cl (stereo not shown) [CSO B HCl]"
reading_unit = "µg/mL"
observed_result = 2


Recorded MIC for CCCC1CC(C(=O)NC(C(C)Cl)C2OC([S+](C)[O-])C(O)C(O)C2O)N(C)C1.O=C(O)CC(O)(CC(=O)O)C(=O)O (stereo not shown) [CSO B citrate] , please?
2

// lookup MIC for CCCC1CC(C(=O)NC(C(C)Cl)C2OC([S+](C)[O-])C(O)C(O)C2O)N(C)C1.O=C(O)c1ccccc1 (stereo not shown) [CSO B benzoate]
2

====

compounds and their reported MIC
system: S. aureus ATCC 29213; test: MIC against S. aureus ATCC 29213; assay type: cell-based, Staphylococcus aureus
Express the result in µg/mL but write the number alone.

Some compounds with known MIC results, for comparison:
[[record]]
compound = "CCCC1CC(C(=O)NC(C(C)Cl)C2OC(S(C)(=O)=O)C(O)C(O)C2O)N(C)C1.O=S(=O)(O)O (centres unmarked) [CSO2 sulfate]"
reading_unit = "µg/mL"
observed_result = 1

[[record]]
compound = "CCCC1CC(C(=O)NC(C(C)Cl)C2OC([S+](C)[O-])C(O)C(O)C2O)N(C)C1.O=C(O)CCC(=O)O (centres unmarked) [CSO A succinate]"
reading_unit = "µg/mL"
observed_result = 16

[[record]]
compound = "CCCC1CC(C(=O)NC(C(C)Cl)C2OC([S+](C)[O-])C(O)C(O)C2O)N(C)C1.O=C(O)C=CC(=O)O (centres unmarked) [CSO B fumarate]"
reading_unit = "µg/mL"
observed_result = 2

[[record]]
compound = "CCCC1CC(C(=O)NC(C(C)Cl)C2OC([S+](C)[O-])C(O)C(O)C2O)N(C)C1.O=C(O)C=CC(=O)O (centres unmarked) [CSO A maleate]"
reading_unit = "µg/mL"
observed_result = 16


Please find the next compound below.
Can you look up MIC on S. aureus ATCC 29213 for CCCC1CC(C(=O)NC(C(C)Cl)C2OC([S+](C)[O-])C(O)C(O)C2O)N(C)C1.O=C(O)C=CC(=O)O (centres unmarked) [CSO A fumarate] ?
16
